Test system: SNB-75 CNS
Assay: NCI tumour cell line growth inhibition, 48 h
Consider the following compounds; for each one, report its TGI.
// units = µM; emit number, no label

Task: Bench note: what TGI did C#CCNC(=O)NC(CCCCNC(=O)OCc1ccccc1)C(=O)OCc1ccccc1 (stereo not given) show?
Output: 37.3

Task: Bench note: what TGI did CN(C)CCCn1c2c(c3cc4c(cc3c1=O)OCO4)C(=O)c1ccccc1-2 show?
Output: 37.4

Task: Bench note: what TGI did CCC(=O)C(CCN1CCC(N2C(=O)C(CCC#N)c3ccccc32)CC1)(c1ccccc1)c1ccccc1 (stereo not given) show?
Output: 31.7

Task: Bench note: what TGI did CCC(C)N1CN(c2ccccc2)C2(CCN(CCCSc3ccc(F)cc3)CC2)C1=O (stereo not given) show?
Output: 25

Task: Bench note: what TGI did O=C(/C=C(\Nc1ccccc1O)c1ccc(Br)cc1)C(Cl)(Cl)Cl show?
Output: 26.8

Task: Bench note: what TGI did COc1c(CC=C(C)C)c(O)c(C(CC(C)C)c2c(O)c(CC=C(C)C)c(O)c(C(C)=O)c2O)c(O)c1C(C)=O (stereo not given) show?
Output: 8.32

Task: Bench note: what TGI did C/C(=N\NC(=S)N1CCN(c2ccccn2)CC1)c1ncccn1 show?
Output: 20.3

Task: Bench note: what TGI did O=[N+]([O-])c1cc(Cc2cc([N+](=O)[O-])c3cccnc3c2O)c(O)c2ncccc12 show?
Output: 24.9

Task: Bench note: what TGI did COc1cc(-c2ncn(/C=C\c3nnco3)n2)cc(C(F)(F)F)c1 show?
Output: 4.73

Task: Bench note: what TGI did O=C1C=C(C2=C(C3=CC(=O)c4ccccc4C3=O)C(=O)c3ccccc3C2=O)C(=O)c2ccccc21 show?
Output: 35.3

Task: Bench note: what TGI did C=C1C=CC2(Br)OC3CC(C)(Cl)C(Br)CC13C2(C)C (stereo not given) show?
Output: 77.7

====

Test system: UACC-257 melanoma
Assay: NCI tumour cell line growth inhibition, 48 h
reported metric: log10(TGI) (log10 of the value in µM)
A difference of one corresponds to tenfold TGI; all values are log10 with TGI in µM.

Task: Bench note: what log10(TGI) did COc1ccc(OC)c(Cc2cnc3nc(N)nc(N)c3c2C)c1 show?
Output: 1.68

Task: Bench note: what log10(TGI) did CCC(=O)C(CCN1CCC(N2C(=O)C(CCC#N)c3ccccc32)CC1)(c1ccccc1)c1ccccc1 (stereo not given) show?
Output: 1.43

Task: Bench note: what log10(TGI) did CC1CCN(CCOc2ccc(CNc3ccc4nc(CCC5CCCCC5)[nH]c4c3)cc2)CC1 show?
Output: 0.57

Task: Bench note: what log10(TGI) did O=C(NCCCCCCCN1CCCCCCC1)C(C1CCCCC1)C1CCCCC1 show?
Output: 0.68

Task: Bench note: what log10(TGI) did NCc1ccc(-c2nc(-c3ccc(Cl)c(O)c3)c(-c3ccncc3)[nH]2)cc1 show?
Output: 1.24

====

System: 786-0 renal
Experiment: NCI tumour cell line growth inhibition, 48 h; in the data active means GI50 below about 0.43 µM; inactive means the rest
Permitted responses: true (1) = active, false (0) = inactive

Task: Given COCCOCCOCCOCCOC(=O)OC[n+]1ccc(NC(=NCCCCCCOc2ccc(Cl)cc2)NC#N)cc1 , state the outcome it received in this test.
Output: false (0)

Task: Given N#CC1C(N)=NNC12Nc1ccccc1S2 (stereo not given) , state the outcome it received in this test.
Output: false (0)

Task: Given O=S(=O)(NCCCNc1nccc(-c2c(-c3ccc(F)cc3)nc3sccn23)n1)c1ccc(F)cc1 , state the outcome it received in this test.
Output: false (0)

Task: Given COC(=O)c1cc([N+](=O)[O-])cc([N+](=O)[O-])c1Cl , state the outcome it received in this test.
Output: false (0)

Task: Given CC1(C)[C@H](O)[C@H](F)C[C@@]2(C)Oc3ccc(C(=O)Nc4ccc5c(c4)NC(=O)C54CCN(CCCCC#N)CC4)cc3C[C@H]12 , state the outcome it received in this test.
Output: true (1)
